B1: Pistol ribozyme (parent)
chain: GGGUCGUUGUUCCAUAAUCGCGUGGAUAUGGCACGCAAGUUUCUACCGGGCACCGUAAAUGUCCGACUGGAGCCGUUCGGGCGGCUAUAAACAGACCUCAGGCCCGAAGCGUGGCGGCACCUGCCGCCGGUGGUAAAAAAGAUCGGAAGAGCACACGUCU

variants of: B1; test: aptazyme ON/OFF ratio, guanine; higher = stronger switching; co-transcriptional cleavage with and without guanine
Below, each of the variants is paired with its reported aptazyme ON/OFF ratio value.
OBSERVED_PROPERTY: aptazyme ON/OFF ratio

U8G G9A U10A U11C C12A C13A	1.21
U7G G9A U11C C12G C13A	1.11
U11A C12A C13A	1.59
C12A C13G	1.27
U7C G9C U10G U11G C13U	1.09
U7G U8C G9A U10C C12G C13G	1.19
U7G U8G G9U U11A C12G C13A	1.15
U7G U8C G9U U10A U11A C12G C13U	1.19
U7A U8A G9A U10C U11A C12G C13G	1.11
U8A G9U U10C U11C C12U	1.04
G9A U10C U11C C12U C13A	1.03
U8C G9C U11G C12U C13U	1.1
U8A G9A U10A C12A C13U	1.39
U7C U8C U10G U11G C12A C13G	1.11
U7C U11A C12G	1.21
U7A U8A G9A U10G U11A C12G C13U	1.33
U7C G9A U11C C12G	1.22
U7A U8A G9U U10A U11G C12A C13U	1.18
U7A U8A U10A C12U C13A	1.28
U8A G9A U10A C12U C13A	1.2
U8C G9C U10A C12U	1.13
U7G U8G U11G C12A	1.42
U7A U8A G9U U10A U11G C12G C13U	1.36
U7C U8G U10A U11A C12U C13A	1.16
U7G U8G G9A U10A U11G C12A C13G	1.03
U7A U8G G9C U10C C12U	1.24
U7C U8A G9U U11G C13A	1.17
U10C C12U C13G	1.1
U7G U8C G9A U10G U11A C12G C13U	1.12
U7A U8G G9C U10A C13G	1.15
U7A U8G U10C C12A C13G	1.25
U7C G9A U10A C12G C13G	1.18
U7G U10C C13U	1.03
U7A G9A U10C U11A C12G C13A	1.19
U8G G9U U10G U11C C12U C13A	1.03
U7A U8A U10C U11C C12A	1.17
U7A U8C G9C U11G C12G C13U	1.11
G9C U10C U11C C13G	1.03
U7A G9C U11A C13U	1.07
U7G U8G U10G U11G C12A C13G	1.03
U7C U8A U10G U11C C12G C13A	1.3
U7G U8G G9C U10C U11C C12G C13G	1.06
U8C U10C	2.68
U7A U10C U11A C12G C13A	1.22
U7G U8G G9U U10C U11C C12U	1.53
U7C U8A G9A U10G U11C C12G C13G	1.21
